I'd appreciate it if you could supply ΔTm values for the items below.
# experimental_target: T1, 1β PASB (HIF-1β PASB domain, 356-474) (UniProt P27540 356-474)
# T1 construct: range 356-474; not shown: His6 tag of vector pET28
# T1 sequence (P27540 356-474): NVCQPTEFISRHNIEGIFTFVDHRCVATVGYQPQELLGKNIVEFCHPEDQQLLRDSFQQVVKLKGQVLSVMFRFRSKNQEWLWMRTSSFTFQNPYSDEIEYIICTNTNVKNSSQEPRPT
# test_description: thermal shift assay, 1 mM peptide
Respond numerically; units are ° C. and should not be typed.

Can you look up the measured ΔTm of SGWEMIQRR (cyclic peptide (first amino acid joined to the last), One of the 4 cyclic peptide hits) [cyclo-SGWEMIQRR (SEQ ID NO 5)] for me?
-0.5

And for CRLLIF (cyclic peptide (cyclo-, first amino acid joined to the last), One of the 4 cyclic peptide hits of the SICLOPPS screen; made by solid phase synthesis; also called CRLLIX where X = F) [cyclo-CRLLIF (SEQ ID NO 3)] ?
-1

And for CRVIIF (cyclic peptide (cyclo-, first amino acid joined to the last), also called Compound C) [cyclo-CRVIIF (SEQ ID NO 4)] ?
-0.5

And for CKLIIF (cyclic peptide (first amino acid joined to the last)) [cyclo-CKLIIF (SEQ ID NO 2)] ?
-0.5
